src = the NIST ThermoML archive (doi:10.1021/je0601208)

test: xn = mol fraction of the nth substance listed; conditions: 288.15 K, x1 = 0.3
measured quantity: surface tension liquid-gas (mN/m)

Inquiry: Value lookup for surface tension liquid-gas; key = CCCCCC(=O)OCC [ethyl hexanoate] + CCO
Reply text: 24.7

Inquiry: Then CC(=O)OCCC(C)C [3-methylbutyl ethanoate] + CCO ?
Reply text: 24

Inquiry: Then CCCC(=O)OCCC(C)C [3-methylbutyl butanoate] + CCO ?
Reply text: 24.3

Inquiry: Then CCOC(=O)c1ccccc1 [ethyl benzoate] + CCO ?
Reply text: 27.5

Inquiry: Then CCCCCCCC(=O)OCC [ethyl octanoate] + CCO ?
Reply text: 25.3

Inquiry: Then CCOC(=O)Cc1ccccc1 [ethyl phenylacetate] + CCO ?
Reply text: 27.2
